experiment description: binders of probe aHhip on microarray, primary screen, stem cell growth factor project, biochemical, small-molecule microarray, fluorescence 635/667 (AID 1087);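 note: score merges spot fluorescence at 667nm with spot signal to noise ratio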
measurement parameters: higher = more signal
quantity kind: composite z-score
Could you keep your reply to the number by itself?

// worked examples, composite z-score included
compound	composite z-score
[N-]=[N+]=Nc1ccccc1[C@@H]1OC(c2ccc(OCCCO)cc2)=N[C@]1(Cc1ccccc1)C(N)=O	-0.0994
CCOC(=O)C[C@H]1[C@H](OC(=O)c2cc3ccccc3oc2=O)[C@@H](NC(=O)C2CCCCC2)c2cc(OCCCO)ccc2N1C(=O)Cc1ccc(OC)cc1	-0.201
NC(=O)[C@@]1(CCS(=O)(=O)c2ccccc2)COC(c2ccc(OCCCO)cc2)=N1	-0.112
COCCOC(=O)N1C(=O)[C@@]2(c3cc(C#CCCO)ccc31)[C@H](C(=O)N1CCN(c3ncccn3)CC1)[C@H]1C(=O)O[C@H](c3ccccc3)[C@H](c3ccccc3)N1[C@@H]2c1ccc(O)cc1	-0.367
[N-]=[N+]=NCc1ccccc1C[C@]1(C(=O)O)COC(c2ccc(OCCCO)cc2)=N1	0.2

Ask: Any idea what its composite z-score is? The molecule is "C=CC[C@@]1(C(=O)N(C)C)N=C(c2ccc(OCCCO)cc2)O[C@@H]1c1ccccc1"
Result: 0.109

Ask: Any idea what its composite z-score is? The molecule is "COC(=O)[C@]1(CO)N=C(c2ccc(OCCCO)cc2)O[C@@H]1c1ccccc1CN=[N+]=[N-]"
Result: -0.286
